Target: Tubulin (Homo sapiens) (UniProt P68371+Q9H4B7+P0DPH7+P68366+Q13509+Q71U36+P04350+Q3ZCM7+P07437+P68363+Q9BQE3+Q6PEY2+Q13885+Q9BVA1+Q9BUF5)
Assay: Inhibition of tubulin polymerization in human HeLa cells assessed as abnormal microtubule network at 0.5 uM incubated for 6 hrs by DAPI staining based fluorescence microscopic analysis
Format: cell-based
Active and inactive are the calls of the source. The rule behind the calls is not given here.
measure: inhibition

Example entries begin here.
Cc1[nH]c2c(c1-c1nnc(-c3ccccc3Cl)s1)Cc1ccccc1-2: Active
Cc1[nH]c2c(c1-c1nnc(-c3ccccc3)[se]1)Cc1ccccc1-2: Active
Cc1[nH]c2c(c1-c1nnc(-c3ccccc3)s1)Cc1ccccc1-2: Active
Cc1[nH]c2c(c1-c1nnc(-c3ccccc3)o1)Cc1ccccc1-2: Active
Cc1[nH]c2c(c1-c1nnc(-c3cccc(Cl)c3)[se]1)Cc1ccccc1-2: Active

query: Give the measured inhibition of Cc1[nH]c2c(c1-c1nnc(-c3ccccc3Cl)[se]1)Cc1ccccc1-2 .
result: Active

---

Tested on: HeLa
Test: Induction of apoptosis in human HeLa cells assessed as dead cells at 1 uM incubated for 24 hrs by Annexin V-FITC/7-AAD staining based flow cytometric analysis (reference value: 0.6 +/- 0.707 %)
Assay type: functional
Quick rule for you: Activity at 4% or higher means MET, lower means NOT MET.

query: Evaluate Cc1[nH]c2c(c1-c1nnc(-c3ccccc3Cl)s1)Cc1ccccc1-2 : Activity at minimum 4%?
result: MET

query: Evaluate Cc1[nH]c2c(c1-c1nnc(-c3ccccc3)s1)Cc1ccccc1-2 : Activity at minimum 4%?
result: MET

query: Evaluate Cc1[nH]c2c(c1-c1nnc(-c3ccccc3)o1)Cc1ccccc1-2 : Activity at minimum 4%?
result: MET

query: Evaluate Cc1[nH]c2c(c1-c1nnc(-c3ccccc3Cl)[se]1)Cc1ccccc1-2 : Activity at minimum 4%?
result: MET

query: Evaluate Cc1[nH]c2c(c1-c1nnc(-c3ccccc3)[se]1)Cc1ccccc1-2 : Activity at minimum 4%?
result: NOT MET

query: Evaluate Cc1[nH]c2c(c1-c1nnc(-c3cccc(Cl)c3)[se]1)Cc1ccccc1-2 : Activity at minimum 4%?
result: NOT MET

---

Provide the reported Activity of each item.
Test system: HeLa
Assay: Induction of cell cycle arrest in human HeLa cells assessed as accumulation of cells at S phase at 1 uM incubated for 18 hrs by FACS flow cytometry analysis (reference value: 17.41 +/- 1.16 %)
Type: functional

query: Give the measured Activity of Cc1[nH]c2c(c1-c1nnc(-c3ccccc3Cl)[se]1)Cc1ccccc1-2 .
result: 12.5%

query: Give the measured Activity of Cc1[nH]c2c(c1-c1nnc(-c3cccc(Cl)c3)[se]1)Cc1ccccc1-2 .
result: 9.44%

query: Give the measured Activity of Cc1[nH]c2c(c1-c1nnc(-c3ccccc3)s1)Cc1ccccc1-2 .
result: 20.62%

query: Give the measured Activity of Cc1[nH]c2c(c1-c1nnc(-c3ccccc3)[se]1)Cc1ccccc1-2 .
result: 10.36%

query: Give the measured Activity of Cc1[nH]c2c(c1-c1nnc(-c3ccccc3Cl)s1)Cc1ccccc1-2 .
result: 9.52%

query: Give the measured Activity of Cc1[nH]c2c(c1-c1nnc(-c3ccccc3)o1)Cc1ccccc1-2 .
result: 8.43%

---

Test system: PC-3
Experiment: Antiproliferative activity against human PC-3 cells assessed as inhibition of cell growth incubated for 48 hrs by XTT assay
Type: functional, cell-based
Conditions: PC-3, 48 h
pIC50: −log10 of the molar value.
measure: pIC50

query: Give the measured pIC50 of COc1cc(-c2nnc(-c3c(C)[nH]c4c3Cc3ccccc3-4)s2)cc(OC)c1OC .
result: < 5.00

query: Give the measured pIC50 of Cc1[nH]c2c(c1-c1nnc(-c3ccc(Cl)cc3)[se]1)Cc1ccccc1-2 .
result: < 5.00

query: Give the measured pIC50 of Cc1[nH]c2c(c1-c1nnc(-c3ccc(Cl)c(Cl)c3)[se]1)Cc1ccccc1-2 .
result: < 5.00

query: Give the measured pIC50 of Cc1[nH]c2c(c1-c1nnc(-c3ccc(C(C)(C)C)cc3)s1)Cc1ccccc1-2 .
result: < 5.00

query: Give the measured pIC50 of COc1ccc(-c2nnc(-c3c(C)[nH]c4c3Cc3ccccc3-4)[se]2)cc1 .
result: < 5.00

query: Give the measured pIC50 of COc1ccc(-c2nnc(-c3c(C)[nH]c4c3Cc3ccccc3-4)s2)cc1 .
result: < 5.00

query: Give the measured pIC50 of Cc1[nH]c2c(c1-c1nnc(-c3ccc(C(C)(C)C)cc3)[se]1)Cc1ccccc1-2 .
result: < 5.00

query: Give the measured pIC50 of Cc1[nH]c2c(c1-c1nnc(-c3cccc(Cl)c3)[se]1)Cc1ccccc1-2 .
result: 6.26

query: Give the measured pIC50 of Cc1[nH]c2c(c1-c1nnc(-c3ccccc3Cl)s1)Cc1ccccc1-2 .
result: 6.75

query: Give the measured pIC50 of Cc1[nH]c2c(c1-c1nnc(-c3ccccc3Cl)[se]1)Cc1ccccc1-2 .
result: 7.17

---

Provide the reported Activity of each item.
System: PC-3
Assay: Induction of cell cycle arrest in human PC-3 cells assessed as accumulation of cells at S phase at 1 uM incubated for 6 hrs by FACS flow cytometry analysis (reference value: 35.06 +/- 1.85 %)
Assay type: functional
Field: numeric (%). Do not append units.

query: Give the measured Activity of Cc1[nH]c2c(c1-c1nnc(-c3cccc(Cl)c3)[se]1)Cc1ccccc1-2 .
result: 54.7

query: Give the measured Activity of Cc1[nH]c2c(c1-c1nnc(-c3ccccc3)[se]1)Cc1ccccc1-2 .
result: 56.26

query: Give the measured Activity of Cc1[nH]c2c(c1-c1nnc(-c3ccccc3Cl)[se]1)Cc1ccccc1-2 .
result: 55.33

query: Give the measured Activity of Cc1[nH]c2c(c1-c1nnc(-c3ccccc3)s1)Cc1ccccc1-2 .
result: 21.51

query: Give the measured Activity of Cc1[nH]c2c(c1-c1nnc(-c3ccccc3Cl)s1)Cc1ccccc1-2 .
result: 51.2

query: Give the measured Activity of Cc1[nH]c2c(c1-c1nnc(-c3ccccc3)o1)Cc1ccccc1-2 .
result: 53.05

---

Test system: PC-3
Experiment: Induction of cell cycle arrest in human PC-3 cells assessed as accumulation of cells at G2/M phase at 1 uM incubated for 12 hrs by FACS flow cytometry analysis (reference value: 20.74 +/- 1.95 %)
Format: functional
Strictly below 90% in Activity: TRUE. Otherwise: FALSE.

query: Problem: For the compound Cc1[nH]c2c(c1-c1nnc(-c3ccccc3)o1)Cc1ccccc1-2 , is Activity under 90%?
result: TRUE

query: Problem: For the compound Cc1[nH]c2c(c1-c1nnc(-c3ccccc3Cl)[se]1)Cc1ccccc1-2 , is Activity under 90%?
result: FALSE

query: Problem: For the compound Cc1[nH]c2c(c1-c1nnc(-c3ccccc3)s1)Cc1ccccc1-2 , is Activity under 90%?
result: TRUE

query: Problem: For the compound Cc1[nH]c2c(c1-c1nnc(-c3ccccc3Cl)s1)Cc1ccccc1-2 , is Activity under 90%?
result: FALSE

Values compiled from ChEMBL document CHEMBL5113401.
